Reported spectrum intensity of the extracted mass range (compound in SEC spin column filtrate) values are given for each entry in this list.
Biological target: FLJ13397 clone-derived protein (CARP) (Homo sapiens)
Construct: A human full-length cDNA clone was expressed as a protein with an N-terminal His tag; His tag (pDEST17 Gateway vector) (N); made in house; host or cells: Escherichia coli BL21star(DE3)pLysS
Assay: SEC/MS (size exclusion chromatography / mass analysis) interaction analysis between FLJ13397 clone-derived protein and compounds
Type: binding
Details: compound 10 μM; protein 47.5 μM
Provide a numeric answer; units are not to be included.

compound	obs_value
OC(c1ccccc1)(c1ccccc1)C1CCNCC1	15743409
CC(C)(C)c1ccc(C(O)CCCN2CCC(C(O)(c3ccccc3)c3ccccc3)CC2)cc1 (stereo not shown)	8393491
COC(=O)Nc1nc2ccc(C(=O)c3ccccc3)cc2[nH]1	725295

// switching to the query compound
Would you mind telling me what spectrum intensity of the extracted mass range (compound in SEC spin column filtrate) value was observed for COc1ccc(CCN2CCC(Nc3nc4ccccc4n3Cc3ccc(F)cc3)CC2)cc1 ?
36678174

----------
Target: FLJ13397 clone-derived protein (CARP) (Homo sapiens)
Construct: A human full-length cDNA clone was expressed as a protein with an N-terminal His tag; His tag (pDEST17 Gateway vector) (N); made in house; host or cells: Escherichia coli BL21star(DE3)pLysS
Experiment: SEC/MS (size exclusion chromatography / mass analysis) interaction analysis between FLJ13397 clone-derived protein and compounds
Format: binding
Conditions: compound 10 μM; protein 47.5 μM
Counter-ions that a name gives are not always drawn.
measurement_type: spectrum intensity of the extracted mass range (compound in SEC spin column filtrate)

Field: example entries. Status: answers known.
molecule	obs_value
CC[C@@H](C(=O)[C@@H](C)[C@@H](O)[C@H](C)CCc1ccc(C)c(O)c1C(=O)O)[C@H]1O[C@](CC)([C@H]2CC[C@](O)(CC)[C@H](C)O2)C[C@@H]1C [Lasalocid sodium salt]	46504126
CCC[S+]([O-])c1ccc2[nH]c(NC(=O)OC)nc2c1 (stereo not shown) [Albendazole Sulfoxide]	14241157
COC(=O)Nc1nc2ccc(S(=O)(=O)c3ccccc3)cc2[nH]1	12568548
CCCS(=O)(=O)c1ccc2nc(NC(=O)OC)[nH]c2c1	5089101
Nc1nc2ccccc2[nH]1	71963

Would you mind telling me what spectrum intensity of the extracted mass range (compound in SEC spin column filtrate) value was observed for CCCS(=O)(=O)c1ccc2[nH]c(N)nc2c1 ?
1664928

Would you mind telling me what spectrum intensity of the extracted mass range (compound in SEC spin column filtrate) value was observed for Oc1ccc(CCN2CCC(Nc3nc4ccccc4n3Cc3ccc(F)cc3)CC2)cc1 ?
26276867

----------
Target: FLJ13397 clone-derived protein (CARP) (Homo sapiens, UniProt Q9H8M7)
Construct: A human full-length cDNA clone was expressed as a protein with an N-terminal His tag; His tag (pDEST17 Gateway vector) (N); made in house; host or cells: Escherichia coli BL21star(DE3)pLysS
Assay: SEC/MS (size exclusion chromatography / mass analysis) interaction analysis between FLJ13397 clone-derived protein and compounds
Assay type: binding
Conditions: compound 100 μM; protein 47.5 μM
Experimental: BP-reaction was performed on human full-length cDNA clone and the cloning vector Gateway pDONR201 by the PCR cloning method using the Invitrogen Gateway system to yield an entry clone. […] A human full-length cDNA clone was expressed as a protein with an N-terminal His tag. […] Protein concentrations were measured using BCA Protein Assay (PIERCE), in consideration of the purity calculated by SDS-PAGE. […]
Reported spectrum intensity of the extracted mass range (compound in SEC spin column filtrate) values are given for each entry in this list.
Provide a numeric answer; units are not to be included.

compound	obs_value
c1ccc2[nH]c(-c3cscn3)nc2c1 [Thiabendazole]	63585895
COC(=O)Nc1nc2ccc(S(=O)(=O)c3ccccc3)cc2[nH]1 [Fenbendazole Sulfone]	88590858
CCC[S+]([O-])c1ccc2[nH]c(NC(=O)OC)nc2c1 (centres unmarked) [Albendazole Sulfoxide]	241218904
Nc1nc2ccccc2[nH]1 [2-Aminobenzimidazole]	2080493
COC(=O)Nc1nc2ccc(C(=O)c3cccs3)cc2[nH]1 [Nocodazole]	37180973

Would you mind telling me what spectrum intensity of the extracted mass range (compound in SEC spin column filtrate) value was observed for Nc1nc2ccccc2n1Cc1ccccc1 [2-Amino-1-Benzylbenzimidazole, 2-Amino-1-benzylbenzimidazole] ?
42993061

Would you mind telling me what spectrum intensity of the extracted mass range (compound in SEC spin column filtrate) value was observed for CCCS(=O)(=O)c1ccc2nc(NC(=O)OC)[nH]c2c1 [Albendazole Sulfone] ?
131428354

Would you mind telling me what spectrum intensity of the extracted mass range (compound in SEC spin column filtrate) value was observed for CCCS(=O)(=O)c1ccc2[nH]c(N)nc2c1 [2-Amino-5-N-Propylsulphonylbenzimidazole, 2-Amino-5-N-propylsulphonylbenzimidazole] ?
52719227

----------
Target: FLJ13397 clone-derived protein (CARP) (Homo sapiens, UniProt Q9H8M7)
Construct: A human full-length cDNA clone was expressed as a protein with an N-terminal His tag; His tag (pDEST17 Gateway vector) (N); made in house; host or cells: Escherichia coli BL21star(DE3)pLysS
Sequence (Q9H8M7 1-445): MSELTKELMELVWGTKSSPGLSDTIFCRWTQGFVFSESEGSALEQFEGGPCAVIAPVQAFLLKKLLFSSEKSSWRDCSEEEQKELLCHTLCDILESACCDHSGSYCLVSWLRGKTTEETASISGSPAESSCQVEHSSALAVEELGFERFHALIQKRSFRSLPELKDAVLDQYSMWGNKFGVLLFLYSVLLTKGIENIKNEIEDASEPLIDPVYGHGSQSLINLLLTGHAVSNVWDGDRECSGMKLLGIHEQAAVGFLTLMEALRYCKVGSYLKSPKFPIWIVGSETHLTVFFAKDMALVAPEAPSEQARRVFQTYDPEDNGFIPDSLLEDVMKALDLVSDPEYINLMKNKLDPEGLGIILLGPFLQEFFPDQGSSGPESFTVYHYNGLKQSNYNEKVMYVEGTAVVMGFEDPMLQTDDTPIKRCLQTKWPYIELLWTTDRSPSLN
Assay: SEC/MS (size exclusion chromatography / mass analysis) interaction analysis between FLJ13397 clone-derived protein and compounds
Assay type: binding
Details: compound 100 μM; protein 0 μM (protein-free reference)
Counter-ions that a name gives are not always drawn.
Reported spectrum intensity of the extracted mass range (compound in SEC spin column filtrate) values are given for each entry in this list.
Provide a numeric answer; units are not to be included.

Field: example entries. Status: answers known.
compound	obs_value
COc1ccc(CCN2CCC(Nc3nc4ccccc4n3Cc3ccc(F)cc3)CC2)cc1	210085727
Oc1ccc(CCN2CCC(Nc3nc4ccccc4n3Cc3ccc(F)cc3)CC2)cc1	85510154
Nc1nc2ccccc2[nH]1	437739
CCCOc1ccc2nc(NC(=O)OC)[nH]c2c1	1292692

Would you mind telling me what spectrum intensity of the extracted mass range (compound in SEC spin column filtrate) value was observed for CCCS(=O)(=O)c1ccc2[nH]c(N)nc2c1 ?
36160236

Would you mind telling me what spectrum intensity of the extracted mass range (compound in SEC spin column filtrate) value was observed for CCCSc1ccc2nc(NC(=O)OC)[nH]c2c1 ?
221630

Would you mind telling me what spectrum intensity of the extracted mass range (compound in SEC spin column filtrate) value was observed for CC[C@@H](C(=O)[C@@H](C)[C@@H](O)[C@H](C)CCc1ccc(C)c(O)c1C(=O)O)[C@H]1O[C@](CC)([C@H]2CC[C@](O)(CC)[C@H](C)O2)C[C@@H]1C [Lasalocid sodium salt] ?
945932706

Would you mind telling me what spectrum intensity of the extracted mass range (compound in SEC spin column filtrate) value was observed for COC(=O)Nc1nc2ccc(C(=O)c3ccccc3)cc2[nH]1 ?
482901

Would you mind telling me what spectrum intensity of the extracted mass range (compound in SEC spin column filtrate) value was observed for COC(=O)Nc1nc2ccccc2[nH]1 ?
20562919

Would you mind telling me what spectrum intensity of the extracted mass range (compound in SEC spin column filtrate) value was observed for COC(=O)Nc1nc2ccc([S+]([O-])c3ccccc3)cc2[nH]1 (centres unmarked) ?
106348780

Would you mind telling me what spectrum intensity of the extracted mass range (compound in SEC spin column filtrate) value was observed for OC(c1ccccc1)(c1ccccc1)C1CCNCC1 ?
106849236

Would you mind telling me what spectrum intensity of the extracted mass range (compound in SEC spin column filtrate) value was observed for Nc1nc2ccccc2n1Cc1ccccc1 ?
12703620

Would you mind telling me what spectrum intensity of the extracted mass range (compound in SEC spin column filtrate) value was observed for CCC[S+]([O-])c1ccc2[nH]c(NC(=O)OC)nc2c1 (centres unmarked) [Albendazole Sulfoxide] ?
125971079

Would you mind telling me what spectrum intensity of the extracted mass range (compound in SEC spin column filtrate) value was observed for c1ccc2[nH]cnc2c1 ?
3881633
